Source listed as PubChem BioAssay (NCI).

# Tested on: SF-295 CNS
# ASSAY_INFO: NCI-60 one-dose screen, 48 h (100 = growth as untreated, 0 = no growth, -100 = all killed)
# EXPERIMENTAL_SETUP: 10 µM
The panel holds about 83,000 compounds, 20% with a hit somewhere; the sample as a whole holds those more often.
Recorded growth by entry
The response must be a number in % with no trailing unit.

Examples with answers:
MOLECULE	growth / %
O=C(CI)OCC(COC(=O)CI)OC(=O)CI	94.8
CC(=O)Nc1ccc2c(c1)C(=O)c1cccc(C(=O)O)c1-2	100
CC(C)c1ccc(C(C)C(=O)N(CC2=C(C(C)c3ccccn3)c3ccccc3C2)C(C)C)cc1 (stereo unspecified)	25.6
O=C(/C=C/C=C/c1c(C2CC2)nc2ccccc2c1-c1ccc(F)cc1)c1cccs1	18.3
CCOC(=O)N/N=C/c1ccc(OC)c(OC)c1	101
Nc1nccc(OCCO)n1	97.5

Give the measured growth of OC(CCN1CCCC1)(c1ccccc1)C1CCCCC1 (stereo unspecified) .
100

Request: COC(=O)C1OC1c1cc([N+](=O)[O-])ccc1OC (stereo unspecified)
100

Request: `COc1ccc2c(c1)C(=O)/C(=C/c1ncc([N+](=O)[O-])n1C)O2`
-18.4

Request: `COc1ccc(-c2nn(-c3cccc(Cl)c3)cc2-c2c(C#N)c(=O)n3[nH]c(-c4ccccc4)nc3c2C#N)cc1`
58.8

Request: `CCOC(=O)c1cc(C(=O)c2cc(OC)c(OC)c(OC)c2)n2nc(C)ccc12`
41
